STUDY SYSTEM: T1, VEGFR-1-Fc (UniProt P17948 27-338)
T1 construct: domain: first three Ig domains; expressed in Drosophila S2 cells, purified on Protein A sepharose; also called VEGFR-1-Fc fusion protein; not shown: Fc fragment from the Signal-pIgPlus vector
T1 sequence (P17948 27-338): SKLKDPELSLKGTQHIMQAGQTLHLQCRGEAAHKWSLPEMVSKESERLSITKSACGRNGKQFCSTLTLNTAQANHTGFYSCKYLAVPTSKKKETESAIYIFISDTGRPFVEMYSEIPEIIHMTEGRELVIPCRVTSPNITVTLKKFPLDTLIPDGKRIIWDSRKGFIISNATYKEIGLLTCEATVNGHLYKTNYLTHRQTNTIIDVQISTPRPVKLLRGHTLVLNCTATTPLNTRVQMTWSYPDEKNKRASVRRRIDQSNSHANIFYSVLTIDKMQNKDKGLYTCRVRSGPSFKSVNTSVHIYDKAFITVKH
ASSAY EXPLANATION: receptor-Fc IP
Description: The binding assay procedure was identical to the immunoprecipitation using pentahistidine antibody described in Example 2, apart from the composition of the immunoprecipitation (IP) mixes. […]

>  <BINDER>
64-16 (ligand) GQNHHEVVKFMDVYQRSYCHPREVCIDVGKEFGVATNTFFKPSCVPLMRCGGCCNSEGLQCMNTSTSYLSKTLFEITVPLSQGPKPVTISFANHTSCRCMSKLD

>  <binding result>
no binding

$$$$
>  <BINDER>
71-9 (ligand) GQNHHEVVKSIDNEWRKTQCMPREVCIDVGKEYPDEIEYIFKPSCVPLMRCGGCCNDEGLECVPTEESNITMQIMRITVPLSQGPKPVTISFLQHNKCECRPKKD

>  <binding result>
no binding

$$$$
>  <BINDER>
74-1 (ligand) GQNHHEVVKSIDNEWRKTQCMPREVCIDVGKEFGVATNTFFKPSCVPLMRCGGCCNDEGLECVPTEESNITMQIMRIKPHQGQHIGEMSFLQHNKCECRPKKD

>  <binding result>
no binding

$$$$
>  <BINDER>
83-7 (ligand) AHYNTEILKFMDVYQRSYCHPIETLVDIFQEYPDEIEYIFKPPCVSVYRCGGCCNSEGLQCVPTEESNITMQIMRIKPHQGQHIGEMSFANHTSCRCMSKLD

>  <binding result>
binds

$$$$
